# Tested on: HIV-1 RF virus in CEM-SS cells
# testDetails: HIV-1 cell protection assay (XTT dye reduction)
# Assay type: cell-based
# conditionsUsed: Human immunodeficiency virus 1, 144 h; RF strain of HIV-1, CEM-SS cells, XTT read-out after six days; read-out: EC50
pEC50: −log10 of the molar value.
Values of pEC50 greater than or equal to 8 map to Yes; values below map to No.

Prompt: Item "CCCCOCCOCc1cn(Cc2ccc(F)cc2)c2cnc3c(c12)CCN(O)C3=O" with pEC50 of 8 or above?
Completion: Yes

Prompt: Item "Cc1cc2c(ncc3c2c(CN(C)C)cn3Cc2ccc(F)cc2)c(=O)n1O" with pEC50 of 8 or above?
Completion: Yes

Prompt: Item "COCCCc1cn(Cc2ccc(F)cc2)c2cnc3c(c12)CCN(O)C3=O" with pEC50 of 8 or above?
Completion: Yes

Prompt: Item "O=C1c2ncc3c(c(CCN4CCCC4)cn3Cc3ccc(F)cc3)c2CCN1O" with pEC50 of 8 or above?
Completion: No

Prompt: Item O=C1c2ncc3c(c(COCC(O)CO)cn3Cc3ccc(F)cc3)c2CCN1O (stereo in doubt) with pEC50 of 8 or above?
Completion: Yes

Prompt: Item "O=C1c2ncc3c(c(CNC4CCOCC4)cn3Cc3ccc(F)cc3)c2CCN1O" with pEC50 of 8 or above?
Completion: No

Prompt: Item "CCCCOCc1cn(Cc2ccc(F)cc2)c2cnc3c(c12)CCN(O)C3=O" with pEC50 of 8 or above?
Completion: Yes

Prompt: Item "CN(CCc1cn(Cc2ccc(F)cc2)c2cnc3c(c12)CCN(O)C3=O)CC(F)(F)F" with pEC50 of 8 or above?
Completion: Yes

Prompt: Item "O=C1c2ncc3c(c(COC4CCOCC4)cn3Cc3ccc(F)cc3)c2CCN1O" with pEC50 of 8 or above?
Completion: Yes

Prompt: Item "CN(C)CCc1cn(Cc2ccc(F)cc2)c2cnc3c(c12)CCN(O)C3=O" with pEC50 of 8 or above?
Completion: No

Prompt: Item "O=C1c2ncc3c(c(CCCOCCN4CCOCC4)cn3Cc3ccc(F)cc3)c2CCN1O" with pEC50 of 8 or above?
Completion: Yes

Prompt: Item "O=C1c2ncc3c(ccn3Cc3ccc(F)cc3)c2C=CCN1O" with pEC50 of 8 or above?
Completion: Yes

Prompt: Item "CN(C)C(=O)[C@@H]1CCCN1Cc1cn(Cc2ccc(F)cc2)c2cnc3c(c12)CCN(O)C3=O" with pEC50 of 8 or above?
Completion: No

Prompt: Item "N#Cc1cc(Cn2ccc3c4c(ncc32)C(=O)N(O)CC4)ccc1F" with pEC50 of 8 or above?
Completion: Yes

Data origin, for the record: patent US20070099915A1
